Reference for the values: patent US20210300943A1

I'd be grateful if you could share measured Emax for these entries.
- EXPERIMENTAL_TARGET: recombinant human Meningioma Expressed Antigen 5 (MGEA5), also referred to as O-GlcNAcase (OGA) (Homo sapiens, UniProt O60502)
- Construct: Full length OGA enzyme was purchased at OnGene (cat #TP322411); purchased OnGene (so in the source)
- Sequence (O60502 whole entry): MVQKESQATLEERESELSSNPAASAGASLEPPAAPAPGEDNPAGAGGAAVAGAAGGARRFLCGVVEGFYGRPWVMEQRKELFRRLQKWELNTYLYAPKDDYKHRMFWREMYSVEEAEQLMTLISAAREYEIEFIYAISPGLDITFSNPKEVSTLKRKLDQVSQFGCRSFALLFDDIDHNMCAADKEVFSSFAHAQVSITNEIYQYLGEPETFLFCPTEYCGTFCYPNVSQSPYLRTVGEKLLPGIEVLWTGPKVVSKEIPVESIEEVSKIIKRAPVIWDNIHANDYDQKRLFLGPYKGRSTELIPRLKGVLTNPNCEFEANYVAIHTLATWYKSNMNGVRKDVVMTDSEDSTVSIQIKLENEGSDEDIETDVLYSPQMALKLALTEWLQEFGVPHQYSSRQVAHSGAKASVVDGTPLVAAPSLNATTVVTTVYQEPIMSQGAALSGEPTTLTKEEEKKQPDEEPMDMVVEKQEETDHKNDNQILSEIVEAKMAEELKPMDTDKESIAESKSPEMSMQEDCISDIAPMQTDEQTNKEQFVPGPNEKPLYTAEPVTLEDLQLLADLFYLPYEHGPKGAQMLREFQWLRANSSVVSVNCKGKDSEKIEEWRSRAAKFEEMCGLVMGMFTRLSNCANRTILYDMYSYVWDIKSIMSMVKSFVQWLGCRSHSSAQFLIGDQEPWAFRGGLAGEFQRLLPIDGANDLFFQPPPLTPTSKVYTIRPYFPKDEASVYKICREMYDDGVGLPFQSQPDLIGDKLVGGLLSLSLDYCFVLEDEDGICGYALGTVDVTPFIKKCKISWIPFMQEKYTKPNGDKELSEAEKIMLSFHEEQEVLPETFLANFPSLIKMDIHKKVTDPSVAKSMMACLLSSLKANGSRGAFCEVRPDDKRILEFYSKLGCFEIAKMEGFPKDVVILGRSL
- PROTOCOL_DETAILS: OGA biochemical assay (inhibition of FM-GlcNAc hydrolysis, fluorescence)
- MEASUREMENT_PARAMETERS: maximal effect, read-out: Enzymatic Emax (%)

(Q) Recorded Emax of Cc1cc([C@@H]2CCCN([C@H](C)c3ccc4c(c3)OCC4)C2)cc(C)n1 (single isomer, unassigned) , please.
(A) 101%

(Q) Given the entry Cc1cc(C[C@H]2CCCN(C(C)c3ccc4c(c3)OCC4)C2)cc(C)n1 (mixture of isomers) , report its measured Emax.
(A) 103%

(Q) What value of measured Emax is listed for CC(c1ccc2c(n1)OCCO2)N1CCCC(Oc2ncc(F)cc2F)C1 (stereo not shown) ?
(A) 96%

(Q) What value of Emax has been recorded for this entry: COc1cc(NC[C@@H]2CCCN(C(C)c3ccc4c(n3)OCCO4)C2)cc(C)n1 (mixture of isomers) [Product 27]
(A) 102%
